# STUDY_SYSTEM: human ether-à-go-go-related gene (hERG) potassium channel (human, UniProt Q12809);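 note: peak tail current of the secondary pulse compared with the same well before compound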
# Sequence (Q12809 whole entry, looked up): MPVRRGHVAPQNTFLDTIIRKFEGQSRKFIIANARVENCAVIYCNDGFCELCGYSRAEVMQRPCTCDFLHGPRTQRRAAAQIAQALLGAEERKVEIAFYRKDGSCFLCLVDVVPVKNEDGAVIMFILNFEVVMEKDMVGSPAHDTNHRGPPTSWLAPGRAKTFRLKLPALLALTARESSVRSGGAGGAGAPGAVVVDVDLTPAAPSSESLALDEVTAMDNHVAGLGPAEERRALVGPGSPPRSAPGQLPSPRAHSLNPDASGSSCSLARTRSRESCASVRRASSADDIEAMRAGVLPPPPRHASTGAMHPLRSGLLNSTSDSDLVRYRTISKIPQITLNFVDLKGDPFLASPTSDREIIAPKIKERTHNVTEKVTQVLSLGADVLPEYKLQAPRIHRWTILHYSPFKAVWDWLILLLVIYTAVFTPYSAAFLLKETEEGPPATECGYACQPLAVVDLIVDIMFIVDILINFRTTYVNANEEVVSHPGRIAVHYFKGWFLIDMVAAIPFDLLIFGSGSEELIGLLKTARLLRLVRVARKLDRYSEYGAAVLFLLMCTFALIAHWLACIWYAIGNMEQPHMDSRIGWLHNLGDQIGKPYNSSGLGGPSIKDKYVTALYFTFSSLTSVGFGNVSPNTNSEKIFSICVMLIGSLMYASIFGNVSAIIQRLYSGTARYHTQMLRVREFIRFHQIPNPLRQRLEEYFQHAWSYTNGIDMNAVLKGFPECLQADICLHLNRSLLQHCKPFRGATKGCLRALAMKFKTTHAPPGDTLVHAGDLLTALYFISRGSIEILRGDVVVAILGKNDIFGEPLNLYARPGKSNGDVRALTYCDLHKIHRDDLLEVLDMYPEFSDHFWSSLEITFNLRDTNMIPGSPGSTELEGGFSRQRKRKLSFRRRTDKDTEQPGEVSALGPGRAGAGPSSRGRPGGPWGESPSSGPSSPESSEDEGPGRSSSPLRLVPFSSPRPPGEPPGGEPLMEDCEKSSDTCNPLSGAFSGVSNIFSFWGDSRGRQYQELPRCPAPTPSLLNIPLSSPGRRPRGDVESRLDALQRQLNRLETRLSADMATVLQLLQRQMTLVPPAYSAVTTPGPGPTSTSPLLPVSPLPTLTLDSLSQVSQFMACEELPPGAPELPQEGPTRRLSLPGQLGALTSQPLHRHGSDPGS
# ASSAY_REMARKS: primary screen, population patch clamp on CHO cells stably expressing hERG; higher = less effect of the substance
About 14,000 (4.5%) of roughly 310,000 compounds showed an effect of 50% or more. Effects have a minus sign here. Shown is part of a subset that was picked to be rich in strong results.
EXPERIMENTAL_READOUT: hERG current change (%, negative = inhibition) at 10uM (%)
Note: unit % is implicit; provide only the numeric part.

Illustrative cases are given below, each with its answer.
{"COMPOUND": "CCN(CC)CCNc1cc(C)c(C#N)c2nc3ccccc3n12", "UNIT": "%", "RECORDED_VALUE": -20.6}
{"COMPOUND": "CCc1cc2c(NCCN3CCCCC3)ncnc2s1.Cl", "UNIT": "%", "RECORDED_VALUE": -71.9}
{"COMPOUND": "CCN(CC)S(=O)(=O)c1ccc(N2CCOCC2)c(NC(=O)CN2C(=O)NC(C)(c3ccccc3)C2=O)c1 (stereo not drawn)", "UNIT": "%", "RECORDED_VALUE": -24.1}
{"COMPOUND": "CC(=O)Oc1ccc2oc(=O)c3c(c2c1)CCCN3C(=O)CN1CCOCC1", "UNIT": "%", "RECORDED_VALUE": 1.97}
{"COMPOUND": "CCOc1ccc(C(=O)NCCC(=O)NCCCC(=O)O)cc1", "UNIT": "%", "RECORDED_VALUE": 6.08}

Now for a further compound.
I would be grateful if you could share the reported hERG current change (%, negative = inhibition) at 10uM for CCCC1(CCC)NC(=O)N(CC(=O)c2cc(C)n(-c3ccc4c(c3)OCO4)c2C)C1=O . 5.65
